For each of the binders below, state its fold repression.
- Target system: T1, ECF04_1609
- T1 chain: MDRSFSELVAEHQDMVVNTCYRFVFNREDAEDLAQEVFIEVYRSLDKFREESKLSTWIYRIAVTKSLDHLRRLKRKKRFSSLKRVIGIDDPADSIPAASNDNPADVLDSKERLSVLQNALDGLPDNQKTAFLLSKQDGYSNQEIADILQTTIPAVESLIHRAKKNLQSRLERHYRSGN

Read the entry AS30_35 (protein) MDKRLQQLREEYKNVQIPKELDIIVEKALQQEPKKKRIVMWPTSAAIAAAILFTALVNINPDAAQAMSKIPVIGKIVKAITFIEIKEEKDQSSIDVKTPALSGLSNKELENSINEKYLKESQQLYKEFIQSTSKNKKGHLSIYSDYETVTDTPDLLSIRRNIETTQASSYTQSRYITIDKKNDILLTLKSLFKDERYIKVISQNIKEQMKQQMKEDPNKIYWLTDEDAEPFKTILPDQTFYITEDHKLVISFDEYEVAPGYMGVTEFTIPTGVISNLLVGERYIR and write its reported fold repression.
2.43

Provide only the value of recorded fold repression for AS03_1198 (protein) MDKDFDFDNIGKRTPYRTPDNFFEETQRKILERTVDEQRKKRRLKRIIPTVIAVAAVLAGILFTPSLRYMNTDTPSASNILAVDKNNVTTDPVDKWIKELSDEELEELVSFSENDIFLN
1.54

Give the reported value of fold repression for this record: AS22_4450 (protein) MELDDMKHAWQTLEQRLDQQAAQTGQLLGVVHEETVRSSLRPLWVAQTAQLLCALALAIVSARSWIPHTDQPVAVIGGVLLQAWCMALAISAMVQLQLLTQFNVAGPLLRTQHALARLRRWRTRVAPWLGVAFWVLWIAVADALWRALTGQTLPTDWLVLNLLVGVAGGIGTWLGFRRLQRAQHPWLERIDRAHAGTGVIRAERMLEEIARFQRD
1.43

Specify reported fold repression for the binder shown: AS03_1244 (protein) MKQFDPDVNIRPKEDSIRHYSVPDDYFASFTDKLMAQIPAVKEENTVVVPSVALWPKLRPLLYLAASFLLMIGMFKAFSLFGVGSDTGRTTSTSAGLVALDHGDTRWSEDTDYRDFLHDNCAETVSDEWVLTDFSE
2.42

Tell me measured fold repression for AS25_1645 (protein) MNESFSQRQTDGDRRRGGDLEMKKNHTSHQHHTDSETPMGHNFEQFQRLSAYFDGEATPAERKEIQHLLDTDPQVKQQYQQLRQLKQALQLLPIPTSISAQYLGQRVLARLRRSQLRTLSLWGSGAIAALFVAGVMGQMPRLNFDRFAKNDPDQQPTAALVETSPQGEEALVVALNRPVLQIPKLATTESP please.
6.4

Specify measured fold repression for AS15_436 (protein) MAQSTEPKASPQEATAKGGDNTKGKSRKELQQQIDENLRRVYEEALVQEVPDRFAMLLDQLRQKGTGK .
5.41
